Tested on: cowpox virus
measurement-notes: microbe, parasite or virus in culture
Type: cell-based
cond: Table 3; read-out: IC50 in cowpox infected cells
readout-type: IC50

(Q) I'd like to know its IC50. The compound in question is CCCCCCCCCCCCCCCCOCCCOP1(=O)COC(Cn2ccc(N)nc2=O)CO1 (stereo not shown)
(A) < 0.03 µM

----------
Each item that follows carries a reported CC50.
System: HFF Cells
cond: human

Here are 2 molecules together with their reported answers.
CCCCCCCCCCCCCCCCOCCCOP1(=O)COC(Cn2ccc(N)nc2=O)CO1 (stereo not drawn) :: > 100 µM
Nc1ccn(C[C@H]2COP(=O)(O)CO2)c(=O)n1 :: > 100 µM

# evaluate next
(Q) I'd like to know its CC50. The molecule in question is `Nc1ccn(C[C@@H](CO)OCP(=O)(O)O)c(=O)n1`
(A) 89.8 µM

Cited source for all entries: patent EP1914237B1
